Catalogue of IC50 readings, one per entry.
Target: Mer (Homo sapiens (Human), UniProt Q12866)
Sequence (Q12866 21-999): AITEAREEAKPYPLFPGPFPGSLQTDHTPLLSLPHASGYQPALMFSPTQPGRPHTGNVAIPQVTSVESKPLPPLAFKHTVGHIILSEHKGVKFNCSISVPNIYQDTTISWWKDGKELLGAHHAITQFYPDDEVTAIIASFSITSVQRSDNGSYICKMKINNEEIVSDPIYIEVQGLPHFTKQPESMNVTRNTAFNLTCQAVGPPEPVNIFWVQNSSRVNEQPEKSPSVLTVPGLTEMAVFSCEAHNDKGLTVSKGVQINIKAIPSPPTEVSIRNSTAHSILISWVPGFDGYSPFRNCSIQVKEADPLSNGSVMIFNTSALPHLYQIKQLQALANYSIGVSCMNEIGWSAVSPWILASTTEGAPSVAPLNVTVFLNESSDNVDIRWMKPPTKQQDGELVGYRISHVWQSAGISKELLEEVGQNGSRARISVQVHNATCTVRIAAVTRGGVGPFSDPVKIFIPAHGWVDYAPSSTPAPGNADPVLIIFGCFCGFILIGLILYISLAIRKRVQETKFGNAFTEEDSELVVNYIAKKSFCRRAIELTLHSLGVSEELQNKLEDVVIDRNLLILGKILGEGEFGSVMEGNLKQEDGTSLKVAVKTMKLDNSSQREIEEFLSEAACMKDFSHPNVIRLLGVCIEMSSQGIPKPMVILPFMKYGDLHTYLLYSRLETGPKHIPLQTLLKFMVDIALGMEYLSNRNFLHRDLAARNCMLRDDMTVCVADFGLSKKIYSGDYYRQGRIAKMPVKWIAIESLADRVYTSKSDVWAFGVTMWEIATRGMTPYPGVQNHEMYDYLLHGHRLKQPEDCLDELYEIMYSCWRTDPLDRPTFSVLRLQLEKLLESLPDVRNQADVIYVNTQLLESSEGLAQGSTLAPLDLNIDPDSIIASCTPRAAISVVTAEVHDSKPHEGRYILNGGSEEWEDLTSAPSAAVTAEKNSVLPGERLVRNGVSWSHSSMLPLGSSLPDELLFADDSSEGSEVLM
Test: Mer autophosphorylation ELISA in transient transfected 293A cells
Format: cell-based
Details: cellular, MERTK-transfected 293A cells, phospho-Mer ELISA
Procedure: 293A cells (Thermo Fisher #R70507) were seeded at 1.5×10^6 cells/well onto 100 mm dish (Greiner #664169), in DMEM (Thermo Fisher #11995-040) containing 10% FBS (Thermo Fisher #26140-079), 1% MEM NEAA (Thermo Fisher #11140-050), 1% GlutaMax (Thermo Fisher #35050-061), and 1% Penicillin Streptomycin (Thermo Fisher #15140-122). […] IC50 values were calculated by nonlinear regression analysis using a 4-parameter logistic curve fit in ActivityBase XE (IDBS).

These solved cases illustrate the format of a correct answer.
COc1cc2ncnc(Oc3ccc(NC(=O)C4(C(=O)Nc5ccc(F)cc5)CC4)c(F)c3F)c2nc1OC    ≤ 10 nM
COCCOc1cc2ncnc(Oc3ccc(NC(=O)C4(C(=O)Nc5ccc(F)cc5)CC4)c(F)c3F)c2nc1OC    10 to 100 nM
COCCOc1cc2ncnc(Oc3ccc(NC(=O)C4(C(=O)Nc5ccc(F)cc5)CC4)cc3Cl)c2nc1OC    ≤ 10 nM
COCCOc1cc2nccc(Oc3ccc(NC(=O)C4(C(=O)Nc5ccc(F)cc5)CC4)cc3Cl)c2nc1OC    10 to 100 nM
COc1nc2c(Oc3ccc(NC(=O)C4(C(=O)Nc5ccc(F)cc5)CC4)c(F)c3F)ncnc2cc1OCCCN1CCOCC1    ≤ 10 nM

**Q:** // IC50 lookup, key: `COc1nc2c(Oc3ccc(NC(=O)C4(C(=O)Nc5ccc(F)cc5)CC4)cc3)ncnc2cc1OCCCN1CCOCC1`
**A:** 10 to 100 nM

**Q:** Requested read-out: IC50. Entry: `COc1nc2c(Oc3ccc(NC(=O)C4(C(=O)Nc5ccc(F)cc5)CC4)cc3C#N)ncnc2cc1OCCCN1CCOCC1`
**A:** 10 to 100 nM

**Q:** Could you share which IC50 value was measured for `COc1cc2ncnc(Oc3ccc(NC(=O)C4(C(=O)Nc5ccc(F)cc5)CC4)cc3)c2nc1OC` ?
**A:** 10 to 100 nM

----------
Catalogue of IC50 readings, one per entry.
molecular target: Met (Homo sapiens (Human), UniProt P08581); experiment: Met autophosphorylation ELISA in PC-3 cells; format: cell-based; conditions: cellular, HGF-stimulated, phospho-Met ELISA, read-out: c-Met IC50
Sequence (P08581 25-1390): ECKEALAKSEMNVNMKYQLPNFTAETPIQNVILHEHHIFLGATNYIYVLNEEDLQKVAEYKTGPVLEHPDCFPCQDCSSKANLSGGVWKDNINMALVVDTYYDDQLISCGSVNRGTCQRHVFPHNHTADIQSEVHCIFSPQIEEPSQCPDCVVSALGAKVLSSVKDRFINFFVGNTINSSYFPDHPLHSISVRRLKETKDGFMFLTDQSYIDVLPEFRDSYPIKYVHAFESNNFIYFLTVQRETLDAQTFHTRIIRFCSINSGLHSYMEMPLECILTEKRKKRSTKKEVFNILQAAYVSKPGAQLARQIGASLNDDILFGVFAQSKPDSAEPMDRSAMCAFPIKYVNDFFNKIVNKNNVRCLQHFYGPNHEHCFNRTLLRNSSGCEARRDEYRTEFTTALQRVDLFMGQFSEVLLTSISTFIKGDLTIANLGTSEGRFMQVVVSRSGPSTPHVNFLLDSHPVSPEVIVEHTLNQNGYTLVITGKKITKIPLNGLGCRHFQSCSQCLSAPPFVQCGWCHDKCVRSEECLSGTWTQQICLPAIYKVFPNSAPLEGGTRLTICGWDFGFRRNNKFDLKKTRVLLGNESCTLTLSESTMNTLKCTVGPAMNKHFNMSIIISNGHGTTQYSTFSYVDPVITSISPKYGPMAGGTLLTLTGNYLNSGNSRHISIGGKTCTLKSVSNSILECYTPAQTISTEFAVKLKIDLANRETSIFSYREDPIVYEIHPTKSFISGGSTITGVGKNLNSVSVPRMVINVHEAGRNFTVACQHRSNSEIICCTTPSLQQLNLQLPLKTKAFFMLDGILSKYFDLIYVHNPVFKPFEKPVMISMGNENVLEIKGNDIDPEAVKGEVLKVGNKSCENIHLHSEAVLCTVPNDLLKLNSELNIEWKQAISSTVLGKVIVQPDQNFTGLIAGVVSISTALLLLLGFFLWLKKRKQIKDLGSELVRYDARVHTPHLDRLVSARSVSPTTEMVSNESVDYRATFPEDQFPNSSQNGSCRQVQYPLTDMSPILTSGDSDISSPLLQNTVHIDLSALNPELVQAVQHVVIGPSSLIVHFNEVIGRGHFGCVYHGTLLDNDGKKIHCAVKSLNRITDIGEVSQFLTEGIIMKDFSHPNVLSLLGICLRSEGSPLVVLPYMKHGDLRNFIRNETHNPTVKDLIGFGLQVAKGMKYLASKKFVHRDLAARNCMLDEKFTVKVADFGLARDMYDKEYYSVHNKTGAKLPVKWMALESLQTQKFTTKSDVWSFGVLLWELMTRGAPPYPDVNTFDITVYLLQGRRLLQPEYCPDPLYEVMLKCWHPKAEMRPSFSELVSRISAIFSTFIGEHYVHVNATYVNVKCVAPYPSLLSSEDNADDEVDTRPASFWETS

**Q:** Give the reported IC50 for COc1cc2c(Oc3ccc(NC(=O)C4(C(=O)Nc5ccc(F)cc5)CC4)cc3)ncnc2cn1 [Compound 91] (system: Met (Homo sapiens (Human), UniProt P08581)).
**A:** > 300 nM

**Q:** Which measured IC50 belongs to COc1nc2c(Oc3ccc(NC(=O)C4(C(=O)Nc5ccc(F)cc5)CC4)cc3F)ncnc2cc1OCCCN1CCOCC1 [Compound 67] , tested on Met (Homo sapiens (Human), UniProt P08581)?
**A:** 10 to 100 nM

**Q:** Reported IC50 for Met (Homo sapiens (Human), UniProt P08581), given COc1cc2ncnc(Oc3ccc(NC(=O)C4(C(=O)Nc5ccc(F)cc5)CC4)cc3)c2cc1C(=O)NC[C@H]1CCCN1C(=O)OC(C)(C)C [Compound 119] ?
**A:** > 300 nM

**Q:** Lookup: IC50 / Met (Homo sapiens (Human), UniProt P08581) / COCCOc1cc2ncnc(Oc3ccc(NC(=O)C4(C(=O)Nc5ccc(F)cc5)CC4)cc3F)c2nc1OC [Compound 79]
**A:** 10 to 100 nM

**Q:** # returns recorded IC50 (system: Met (Homo sapiens (Human), UniProt P08581)) for Cn1cc(-c2cnc3c(Oc4ccc(NC(=O)C5(C(=O)Nc6ccc(F)cc6)CC5)cc4)ncnc3c2)cn1 [Compound 129]
**A:** 100 to 300 nM

**Q:** What is its IC50 for Met (Homo sapiens (Human), UniProt P08581)? Entry: COCCOc1cc2ncnc(Oc3cc(F)c(NC(=O)C4(C(=O)Nc5ccc(F)cc5)CC4)cc3F)c2nc1OC [Compound 83]
**A:** 10 to 100 nM

**Q:** Which IC50 is reported with Met (Homo sapiens (Human), UniProt P08581) for this entry: COCCOc1cc2nccc(Oc3ccc(NC(=O)C4(C(=O)Nc5ccc(F)cc5)CC4)cc3Cl)c2nc1OC [Compound 151] ?
**A:** 10 to 100 nM
